Tested on: 23SK skin cells
Experiment: Flow cytometry cell cycle distribution
Format: cell-based, human
Details: IC80 dose, S
Overview of reported Cell Cycle Distribution At IC80 Dose (%) S across a group of compounds:
The figure you give is taken to be in %; do not add the unit.

stdin: Give me measured Cell Cycle Distribution At IC80 Dose (%) S, please, for this compound: CCNCCCCNCCCCNCC=C(CNCC)CNCCCCNCCCCNCC
stdout: 25

stdin: Give me measured Cell Cycle Distribution At IC80 Dose (%) S, please, for this compound: CCNCCCCNCC=C(CNCC)CNCCCCNCC
stdout: 26

stdin: Give me measured Cell Cycle Distribution At IC80 Dose (%) S, please, for this compound: CCNCCCCNCCCCNCCCCNCCCCNCC=C(CNCC)CNCCCCNCCCCNCCCCNCCCCNCC
stdout: 8

stdin: Give me measured Cell Cycle Distribution At IC80 Dose (%) S, please, for this compound: CCNCCCCNCCCCNCCCCNC/C=C(/CS)CNCCCCNCCCCNCCCCNCC
stdout: 11

stdin: Give me measured Cell Cycle Distribution At IC80 Dose (%) S, please, for this compound: CCNCCCCNCCCCNCCCCNCC=C(CNCC)CNCCCCNCCCCNCCCCNCC
stdout: 23

----------
Overview of reported IC50 across a group of compounds:
Target: DNA
Experiment: DNA binding/precipitation from solution
Settings: Expt. 2; read-out: DNA Bind/ppt. IC50 (uM), Expt. 2
Description: The chemoprotective polyamines provided herein are also able to bind, denature and precipitate DNA from solution. […]
The figure you give is taken to be in µM; do not add the unit.

stdin: Give me measured IC50, please, for this compound: CCNCCCCNCCCCNCCCCNCC=C(CS)CNCCCCNCCCCNCCCCNCC
stdout: 117

stdin: Give me measured IC50, please, for this compound: CCNCCCCNCCCCNCCCCNCCCCNC/C=C(/CS)CNCCCCNCCCCNCCCCNCCCCNCC
stdout: 57

stdin: Give me measured IC50, please, for this compound: CCNCCCCNCCCCNCCCCNC/C=C(/CS)CNCCCCNCCCCNCCCCNCC
stdout: 63

stdin: Give me measured IC50, please, for this compound: CCNCCCCNCCCCNC/C=C(/CS)CNCCCCNCCCCNCC
stdout: 83

----------
Molecular target: DNA
Assay: DNA binding/precipitation from solution
Conditions: Expt. 1; read-out: DNA Bind/ppt. IC50 (uM), Expt. 1
Lab note: cut-off is 90 µM. Strictly less in IC50 is 1 (yes). Exactly 90 µM or more is 0 (no).

Answered cases to consult:
> print(dat)
                                   compound  assigned.class
1  CCNCCCCNCCCCNCCCCNCCCCNCC=C(CNCC)CNCCCCNCCCCNCCCCNCCCCNCC         1 (yes)
2     CCNCCCCNCCCCNC/C=C(/CS)CNCCCCNCCCCNCC         1 (yes)
3               CCNCCCCNC/C=C(/CS)CNCCCCNCC          0 (no)
4  CCNCCCCNCCCCNCCCCNCC=C(CNCC)CNCCCCNCCCCNCCCCNCC          0 (no)
5  CCNCCCCNCCCCNCCCCNCCCCNC/C=C(/CS)CNCCCCNCCCCNCCCCNCCCCNCC         1 (yes)
6               CCNCCCCNCC=C(CNCC)CNCCCCNCC          0 (no)

stdin: API: query returns whether the compound falls strictly under 90 µM in IC50. Query: CCNCCCCNCCCCNCCCCNC/C=C(/CS)CNCCCCNCCCCNCCCCNCC
stdout: 1 (yes)

stdin: API: query returns whether the compound falls strictly under 90 µM in IC50. Query: NCCCNCCCCNCCCN [Spermine, spermine, reference compound]
stdout: 0 (no)

stdin: API: query returns whether the compound falls strictly under 90 µM in IC50. Query: CCNCCCCNCCCCNCCCCNCC=C(CS)CNCCCCNCCCCNCCCCNCC
stdout: 0 (no)

Data provenance: patent US7314959B2
